Values were extracted from PubChem BioAssay (NCI).

test system: A498 renal; assay: NCI tumour cell line growth inhibition, 48 h
Can you tell me TGI for the items I'm about to list?

Please review the following examples before continuing.
> print(dat)
                                   molecule  observed.value
1  O=C(Nc1ccc(F)cc1)C(=O)C(C1OC(=O)c2ccccc21)[N+](=O)[O-] (centres undefined)        > 100 µM
2  CSc1nc(NC(=O)O)c(N(C(C)=O)C(=O)O)c(=O)n1C        > 100 µM
3          N#Cc1c(Cl)c2ccccc2n2c1nc1ccccc12        > 100 µM

Q: Retrieve TGI measured for `CCC(=O)NC(Nc1ccc(O)cc1)(C(F)(F)F)C(F)(F)F` and print it.
A: > 100 µM

---

test system: UACC-62 melanoma; experiment: NCI tumour cell line growth inhibition, 48 h
Consider the following compounds; for each one, report its TGI.

> print(dat)
                                   compound  target.under.test  observed.value
1  Nc1ncn(C2C=C(CO)C(O)C2O)c(=O)n1 (centres undefined)   UACC-62 melanoma        > 100 µM
2  O=C(O)C1Cc2c([nH]c3ccccc23)C=N1 (centres undefined)   UACC-62 melanoma        > 100 µM
3      COC(=O)C12CC3CC(C1)CC(C(=O)OC)(C3)C2   UACC-62 melanoma        > 100 µM
4  CC1(C)CCC[C@@]2(C)C1CC[C@H]1CC(O)C3(C)CCC12C3 (some centres undefined)   UACC-62 melanoma         29.2 µM
5  C/C(=N/O)c1cccc(Nc2nc3ccc(Cl)cc3c3[nH]c4ccccc4c23)c1   UACC-62 melanoma         3.94 µM
6  CC(=O)NC1C(O)C(O)C(CO)OC1n1ncc(=O)[nH]c1=O (centres undefined)   UACC-62 melanoma        > 100 µM

Need TGI for each of these compounds.
1. COc1cc(NCc2ccc3nc(OC)c(OC)nc3c2)cc(OC)c1OC
2. CC12CCC(C(=O)N3CC=CCC3)(OC1=O)C2(C)C (centres undefined)
3. COc1ccc(C2=C(N)c3c(OC)cccc3C2=O)cc1
4. Cc1cccc(C)c1NC(=S)NC=C(C(N)=O)C(N)=O
5. COc1cccc(-c2nc3sccn3c2-c2ccnc(NCCNS(=O)(=O)c3ccccc3)c2)c1
6. O=S(=O)(c1ccc(N=C2NN=C(c3c[nH]c4ccccc34)CS2)cc1)N1CCOCC1
7. COc1ccc2c(c1)OC1=C(C(=O)OC1)C2c1cc(OC)c(OC)c(OC)c1 (centres undefined)

A:
["> 100 µM", "> 100 µM", "> 100 µM", "> 100 µM", "3.49 µM", "> 100 µM", "> 100 µM"]

Record TGI per entry; entries follow.
1. O=c1[nH]c2c3ccccc3ccc2c2cc3c(cc12)OCO3
2. COc1c(Cl)c2c(c(OC)c1OC)-c1ccc(SC)c(=O)cc1[C@@H](NC(=O)OCC(F)(F)F)CC2
3. O=C(Nc1cc[c]([Sb](=[O])([OH])[OH])cc1)c1ccccc1
4. O=C(Nc1ccc(F)cc1F)c1cc(Br)ccc1O
5. O=C(O)CC12C3C4C5C3C1C5C42 (centres undefined)
6. NC(=O)C(c1ccccc1)N1OC2C(=O)N(c3cccc4ccccc34)C(=O)C2C1c1c2ccccc2c(Cl)c2ccccc12 (centres undefined)

A:
1: > 100 µM; 2: 21.2 µM; 3: > 100 µM; 4: 3.82 µM; 5: > 100 µM; 6: 13.8 µM
